- assay system: Fatty-acid amide hydrolase 1 (Rattus norvegicus, UniProt P97612)
- Sequence (P97612 whole entry): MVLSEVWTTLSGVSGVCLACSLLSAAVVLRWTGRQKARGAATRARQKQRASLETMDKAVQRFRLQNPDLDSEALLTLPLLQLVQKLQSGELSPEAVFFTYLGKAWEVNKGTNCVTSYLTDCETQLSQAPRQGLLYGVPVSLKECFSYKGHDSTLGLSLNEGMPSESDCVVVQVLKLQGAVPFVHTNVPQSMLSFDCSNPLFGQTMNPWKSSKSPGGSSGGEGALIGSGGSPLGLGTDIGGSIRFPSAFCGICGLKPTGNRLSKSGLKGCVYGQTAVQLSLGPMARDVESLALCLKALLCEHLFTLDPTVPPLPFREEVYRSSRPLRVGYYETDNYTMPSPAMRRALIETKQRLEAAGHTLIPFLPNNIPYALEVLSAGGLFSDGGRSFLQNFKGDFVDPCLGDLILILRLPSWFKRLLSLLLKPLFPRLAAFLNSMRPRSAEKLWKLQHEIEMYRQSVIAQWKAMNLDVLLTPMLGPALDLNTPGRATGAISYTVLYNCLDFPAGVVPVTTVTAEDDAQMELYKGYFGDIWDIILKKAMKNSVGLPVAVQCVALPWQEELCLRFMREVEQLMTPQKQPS
Field IC50: reported value for Fatty-acid amide hydrolase 1 (Rattus norvegicus, UniProt P97612); entries drawn from several documents.

Here's what some known entries look like.
compound | assay system | IC50
CC(C)N(C(=O)n1nnc(-c2ccc(Oc3ccccc3)cc2)n1)C(C)C | Fatty-acid amide hydrolase 1 (Rattus norvegicus, UniProt P97612) | > 10 µM
CCn1c(=O)n([C@@H]2CCCN(c3nccc(-c4cc5ccccc5o4)n3)C2)c2ncccc21 | Fatty-acid amide hydrolase 1 (Rattus norvegicus, UniProt P97612) | > 10 µM
CCc1cc2cc3ccccc3cc2cc1CC(=O)C(F)(F)F | Fatty-acid amide hydrolase 1 (Rattus norvegicus, UniProt P97612) | > 100 µM
O=C(N(CCO)Cc1ccccc1)N1CC(OC(c2ccc(Cl)cc2)c2cccnc2Cl)C1 (racemic) | Fatty-acid amide hydrolase 1 (Rattus norvegicus, UniProt P97612) | > 500 µM

query: # returns recorded IC50 (system: Fatty-acid amide hydrolase 1 (Rattus norvegicus, UniProt P97612)) for CCCCCCCC/C=C\CCCCCCCC(C)=O
result: > 100 µM
